# Tested on: PPARg:RXRa DBDmut IVT, anti-RXR (DBD mutation: RXRa K156A/R161A, NR concentration 270 nM, RXRa partner concentration 90 nM)
# measurement-notes: PBM binding z-score (relative to random genomic background probes); higher = stronger binding; sequences stand for … in GC…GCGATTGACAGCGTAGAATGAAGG
Provide the recorded PBM binding z-score for the entries that follow.
Answers are plain numbers.

Quick one: give me PBM binding z-score for each item below, same order please.
1. CCGACAGGGGCAAAGGTTACCATACTCAGTACGA
2. GCTTGTAGATCAAGGTTGAGAAAGACTAAGCTAA
3. GGAACGAGGCCATTCGAGTTGATAGCATGGCGAT
4. CCGAGTAGGTTATTGGGCATTCAGGCAACGGTGA
5. AGAATGAGGGCAATGAGTTGATAGCACGGGTGGC
6. TCTCGGAGGACACGAAGGTCGGAGCTTTCCAGAG
7. TAGCCTAGGTCATTCAGGGGCCAGTATAGAAAGC

1. 0.215
2. 0.308
3. 2.23
4. 3.85
5. 4.59
6. 1.25
7. 1.64
